Data credit: PubChem BioAssay (NCI)

System: HOP-62 NSCLC
assayInfo: NCI tumour cell line growth inhibition, 48 h
Entries and their measured TGI follow.
Hi! Could you send only the number? It should be in µM, unit omitted.

- compound: "COc1cccc(C2c3cc4c(cc3OC(N3CCOCC3)C2C)OCO4)c1 (stereo not given)"
  measuredOn: "HOP-62 NSCLC"
  quantityMeasured: "TGI"
  observedMeasurement: 60.8
- compound: "O=C(O)c1c(Cl)c(Cl)c(Cl)c(Cl)c1-c1c2cc(I)c(=O)c(I)c-2oc2c(I)c(O)c(I)cc12"
  measuredOn: "HOP-62 NSCLC"
  quantityMeasured: "TGI"
  observedMeasurement: 87.4
- compound: "CC(Cl)CC(=O)Nc1ccc2c(c1)oc(=O)c1cc(NC(=O)CC(C)Cl)ccc12 (stereo not given)"
  measuredOn: "HOP-62 NSCLC"
  quantityMeasured: "TGI"
  observedMeasurement: 28.2
- compound: "CC(C)S(=O)(=O)n1c(N)nc2ccc(/C(=N/O)c3ccccc3)cc21"
  measuredOn: "HOP-62 NSCLC"
  quantityMeasured: "TGI"
  observedMeasurement: 40.8
- compound: "NC(=S)N1N=C(c2ccc3c(c2)CCC3)CC1c1ccccc1 (stereo not given)"
  measuredOn: "HOP-62 NSCLC"
  quantityMeasured: "TGI"
  observedMeasurement: 87

Problem: What does the data say about its TGI? Entry: CC(=O)OCC1OC(O[C@@H]2C[C@H]3C(C)(C)[C@H](OC(C)=O)CC[C@]3(C)[C@H]3CC[C@@H]4[C@]5(CC[C@@]4(C)[C@@]32C)O[C@@H]([C@H](O)C(C)(C)O)C[C@@H]5C)C(O)C(O)C1O (stereo not given in full)
Solution: 27.3
